# TESTED_TARGET: panel of more than 300 wild-type and mutant kinases (313 kinase panel) (Homo sapiens, UniProt Q15349)
# TEST_SUMMARY: Kinase profiling in a biochemical assay panel (mobility shift assays and ELISA), %-inhibition at 1 μM; selectivity entropy
# MEASUREMENT_CONTEXT: kinase RSK3; 1 μM
MEASURED_PARAMETER: %-inhibition of RSK3 (%)
Kindly answer with a numeric value in %, unit omitted.

%-inhibition of RSK3 for "N#CC[C@H](C1CCCC1)n1cc(-c2ncnc3[nH]ccc23)cn1" ?
9

%-inhibition of RSK3 for "C[C@@H](Oc1cc(-c2cnn(C3CCNCC3)c2)cnc1N)c1c(Cl)ccc(F)c1Cl" ?
3.34

%-inhibition of RSK3 for "CS(=O)(=O)CCNCc1ccc(-c2ccc3ncnc(Nc4ccc(OCc5cccc(F)c5)c(Cl)c4)c3c2)o1" ?
5.43

%-inhibition of RSK3 for "Cc1cn(-c2cc(NC(=O)c3ccc(C)c(Nc4nccc(-c5cccnc5)n4)c3)cc(C(F)(F)F)c2)cn1" ?
11

%-inhibition of RSK3 for "Cc1ccc(C(=O)Nc2ccc(CN3CCN(C)CC3)c(C(F)(F)F)c2)cc1C#Cc1cnc2cccnn12" ?
62

%-inhibition of RSK3 for "CO[C@H]1C[C@@H]2CC[C@@H](C)[C@@](O)(O2)C(=O)C(=O)N2CCCC[C@H]2C(=O)O[C@H]([C@H](C)C[C@@H]2CC[C@@H](OC(=O)C(C)(CO)CO)[C@H](OC)C2)CC(=O)[C@H](C)/C=C(\C)[C@@H](O)[C@@H](OC)C(=O)[C@H](C)C[C@H](C)/C=C/C=C/C=C/1C" ?
-3

----------
Kindly state pIC50 for each of the entries shown.
# System: forty-four human cancer cell lines
# TEST_SUMMARY: Cell proliferation assay (ATPlite, 72 hours) in the 44 cell line Oncolines panel
# Format: cell-based
# MEASUREMENT_CONTEXT: Homo sapiens, A-375, read-out: cell panel IC50, A375
Please express pIC50 as -log10 of the molar concentration.

Report pIC50 for "CS(=O)(=O)CCNCc1ccc(-c2ccc3ncnc(Nc4ccc(OCc5cccc(F)c5)c(Cl)c4)c3c2)o1" tested on forty-four human cancer cell lines.
4.83

Report pIC50 for "Cc1ccc(Nc2nccc(N(C)c3ccc4c(C)n(C)nc4c3)n2)cc1S(N)(=O)=O" tested on forty-four human cancer cell lines.
4.78

Report pIC50 for "Cc1cn(-c2cc(NC(=O)c3ccc(C)c(Nc4nccc(-c5cccnc5)n4)c3)cc(C(F)(F)F)c2)cn1" tested on forty-four human cancer cell lines.
5.02

Report pIC50 for "Cc1ccc(C(=O)Nc2ccc(CN3CCN(C)CC3)c(C(F)(F)F)c2)cc1C#Cc1cnc2cccnn12" tested on forty-four human cancer cell lines.
5.94

----------
Kindly state %-inhibition of SIK for each of the entries shown.
# TESTED_TARGET: panel of more than 300 wild-type and mutant kinases (313 kinase panel) (Homo sapiens)
# TEST_SUMMARY: Kinase profiling in a biochemical assay panel (mobility shift assays and ELISA), %-inhibition at 1 μM; selectivity entropy
# MEASUREMENT_CONTEXT: kinase SIK; 1 μM

Report %-inhibition of SIK for "CO[C@H]1C[C@@H]2CC[C@@H](C)[C@@](O)(O2)C(=O)C(=O)N2CCCC[C@H]2C(=O)O[C@H]([C@H](C)C[C@@H]2CC[C@@H](OC(=O)C(C)(CO)CO)[C@H](OC)C2)CC(=O)[C@H](C)/C=C(\C)[C@@H](O)[C@@H](OC)C(=O)[C@H](C)C[C@H](C)/C=C/C=C/C=C/1C" tested on panel of more than 300 wild-type and mutant kinases (313 kinase panel) (Homo sapiens).
-5.28%

Report %-inhibition of SIK for "CCCS(=O)(=O)Nc1ccc(F)c(C(=O)c2c[nH]c3ncc(-c4ccc(Cl)cc4)cc23)c1F" tested on panel of more than 300 wild-type and mutant kinases (313 kinase panel) (Homo sapiens).
24%

Report %-inhibition of SIK for "CC(C)(C)c1nc(-c2cccc(NS(=O)(=O)c3c(F)cccc3F)c2F)c(-c2ccnc(N)n2)s1" tested on panel of more than 300 wild-type and mutant kinases (313 kinase panel) (Homo sapiens).
100%

Report %-inhibition of SIK for "Cc1cn(-c2cc(NC(=O)c3ccc(C)c(Nc4nccc(-c5cccnc5)n4)c3)cc(C(F)(F)F)c2)cn1" tested on panel of more than 300 wild-type and mutant kinases (313 kinase panel) (Homo sapiens).
-25%

Report %-inhibition of SIK for "Cc1ccc(C(=O)Nc2ccc(CN3CCN(C)CC3)c(C(F)(F)F)c2)cc1C#Cc1cnc2cccnn12" tested on panel of more than 300 wild-type and mutant kinases (313 kinase panel) (Homo sapiens).
96%

Report %-inhibition of SIK for "COc1cc(Nc2c(C#N)cnc3cc(OCCCN4CCN(C)CC4)c(OC)cc23)c(Cl)cc1Cl" tested on panel of more than 300 wild-type and mutant kinases (313 kinase panel) (Homo sapiens).
100%

Report %-inhibition of SIK for "N#CC[C@H](C1CCCC1)n1cc(-c2ncnc3[nH]ccc23)cn1" tested on panel of more than 300 wild-type and mutant kinases (313 kinase panel) (Homo sapiens).
22%

Report %-inhibition of SIK for "CNC(=O)c1cc(Oc2ccc(NC(=O)Nc3ccc(Cl)c(C(F)(F)F)c3)c(F)c2)ccn1" tested on panel of more than 300 wild-type and mutant kinases (313 kinase panel) (Homo sapiens).
0.674%

Report %-inhibition of SIK for COc1cc2nccc(Oc3ccc(NC(=O)C4(C(=O)Nc5ccc(F)cc5)CC4)cc3)c2cc1OC [cabozantinib] tested on panel of more than 300 wild-type and mutant kinases (313 kinase panel) (Homo sapiens).
6%

Report %-inhibition of SIK for "O=S(=O)(c1cccc2cnccc12)N1CCCNCC1" tested on panel of more than 300 wild-type and mutant kinases (313 kinase panel) (Homo sapiens).
-0.948%

Report %-inhibition of SIK for "CC(=O)Nc1cccc(-n2c(=O)n(C3CC3)c(=O)c3c(Nc4ccc(I)cc4F)n(C)c(=O)c(C)c32)c1" tested on panel of more than 300 wild-type and mutant kinases (313 kinase panel) (Homo sapiens).
-3%

Report %-inhibition of SIK for "C[C@@H](Oc1cc(-c2cnn(C3CCNCC3)c2)cnc1N)c1c(Cl)ccc(F)c1Cl" tested on panel of more than 300 wild-type and mutant kinases (313 kinase panel) (Homo sapiens).
26%

Report %-inhibition of SIK for "CO[C@H]1C[C@@H]2CC[C@@H](C)[C@@](O)(O2)C(=O)C(=O)N2CCCC[C@H]2C(=O)O[C@H]([C@H](C)C[C@@H]2CC[C@@H](OCCO)[C@H](OC)C2)CC(=O)[C@H](C)/C=C(\C)[C@@H](O)[C@@H](OC)C(=O)[C@H](C)C[C@H](C)/C=C/C=C/C=C/1C" tested on panel of more than 300 wild-type and mutant kinases (313 kinase panel) (Homo sapiens).
-5.51%

Report %-inhibition of SIK for "CS(=O)(=O)CCNCc1ccc(-c2ccc3ncnc(Nc4ccc(OCc5cccc(F)c5)c(Cl)c4)c3c2)o1" tested on panel of more than 300 wild-type and mutant kinases (313 kinase panel) (Homo sapiens).
-7%

Report %-inhibition of SIK for "Cc1ccc(Nc2nccc(N(C)c3ccc4c(C)n(C)nc4c3)n2)cc1S(N)(=O)=O" tested on panel of more than 300 wild-type and mutant kinases (313 kinase panel) (Homo sapiens).
19%

Report %-inhibition of SIK for "COc1cc2c(Nc3ccc(Br)cc3F)ncnc2cc1OCC1CCN(C)CC1" tested on panel of more than 300 wild-type and mutant kinases (313 kinase panel) (Homo sapiens).
70%
